target: regulatory p85α subunit of bovine PI 3-kinase (bovine) (UniProt P23727); assay: SPR (Biacore) competition: 100 nM p85α preincubated with soluble peptide, injected over the same peptide immobilised; two site competition fit, first value
Sequence (P23727 whole entry): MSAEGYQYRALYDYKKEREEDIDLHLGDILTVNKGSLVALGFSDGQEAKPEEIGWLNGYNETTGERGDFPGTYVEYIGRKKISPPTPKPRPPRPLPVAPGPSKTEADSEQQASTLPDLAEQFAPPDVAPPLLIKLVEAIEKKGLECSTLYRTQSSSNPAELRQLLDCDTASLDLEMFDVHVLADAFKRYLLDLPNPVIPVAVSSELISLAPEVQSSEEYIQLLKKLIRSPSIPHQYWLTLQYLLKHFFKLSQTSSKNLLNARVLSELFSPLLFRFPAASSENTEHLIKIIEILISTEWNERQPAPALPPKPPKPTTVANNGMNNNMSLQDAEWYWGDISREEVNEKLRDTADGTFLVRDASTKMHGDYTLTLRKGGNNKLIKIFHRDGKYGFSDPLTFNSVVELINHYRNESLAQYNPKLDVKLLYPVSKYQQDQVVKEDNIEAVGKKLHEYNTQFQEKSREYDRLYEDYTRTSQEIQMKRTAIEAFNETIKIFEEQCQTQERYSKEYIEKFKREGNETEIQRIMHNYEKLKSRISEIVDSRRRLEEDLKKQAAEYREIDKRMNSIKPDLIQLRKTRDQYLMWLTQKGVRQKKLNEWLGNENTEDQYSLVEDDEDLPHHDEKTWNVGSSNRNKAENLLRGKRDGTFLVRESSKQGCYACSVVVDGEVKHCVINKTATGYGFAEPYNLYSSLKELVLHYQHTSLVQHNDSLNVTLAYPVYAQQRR
valueKind: IC50 (µM)

>  <substance>
IRS-1 peptide pY608 (DDGpYMPMSPGV), amino acids 605 to 615 of rat IRS-1 with phosphotyrosine 608

>  <valueKind>
IC50

>  <resultNumber>
0.26

$$$$
